// provenance: patent US20250092039A1

assayInfo: Pharmacokinetics following single intravenous and oral gavage dosing (AUC0-24h)
Type: in vivo
conditionNotes: mouse, plasma; single oral dose 30 mg/Kg, male CD-1 mice
Method: Compounds disclosed herein were studied for animal tolerability and pharmacokinetics following single intravenous (iv) and oral gavage (po) dosing to male CD-1 mice. […] Mice activities were monitored and recorded immediately following the dosing. The prepared plasma samples were analyzed using LC/MS/MS on AB Sciex Triple Quad 5500+ system. The PK parameters were determined by non-compartmental analysis using WinNonlin (Version 8.0).
Under this convention, TRUE denotes AUC(0-t) strictly below 4000 ng·h/mL and FALSE denotes AUC(0-t) at or above 4000 ng·h/mL.

molecule: CCc1c(F)ccc2cc(O)cc(-c3ncc4c(N5CCC[C@@](C)(O)C5)nc(OCC5(CN6CCC(OC7CCC8(CC7)CN(c7ccc9c(c7)CN(C7CCC(=O)NC7=O)C9=O)C8)CC6)CC5)nc4c3F)c12 (some centres unmarked) [Compound 184]
label: FALSE
--
molecule: CCc1c(F)ccc2cc(O)cc(-c3ncc4c(N5CCC[C@@](C)(O)C5)nc(OCC5(CN6CCC7(CC6)CC(F)(CN6CCN(c8cc(F)c(C9CCC(=O)NC9=O)c(F)c8)CC6)C7)CC5)nc4c3F)c12 (some centres unmarked) [Compound 46]
label: FALSE
--
molecule: CCc1c(F)ccc2cc(O)cc(-c3ncc4c(N5CCCC6(CCO6)C5)nc(OCC5(CN6CCC(CN7CCN(c8ccc9c(c8)CN([C@H]8CCC(=O)NC8=O)C9=O)CC7)CC6)CC5)nc4c3F)c12 (some centres unmarked) [Compound 23]
label: TRUE
--
molecule: CCc1c(F)ccc2cc(O)cc(-c3ncc4c(N5CCC[C@@](C)(O)C5)nc(OCC5(CN6CCC(F)(CN7CCN(c8ccc9c(C%10CCC(=O)NC%10=O)nn(C)c9c8)CC7)CC6)CC5)nc4c3F)c12 (some centres unmarked) [Compound 66]
label: FALSE

----------
studyTarget: KRAS G12V (Homo sapiens (Human), UniProt P01116, G12V)
Sequence (P01116-2 other isoform, or with tags, fused parts or gaps G12V): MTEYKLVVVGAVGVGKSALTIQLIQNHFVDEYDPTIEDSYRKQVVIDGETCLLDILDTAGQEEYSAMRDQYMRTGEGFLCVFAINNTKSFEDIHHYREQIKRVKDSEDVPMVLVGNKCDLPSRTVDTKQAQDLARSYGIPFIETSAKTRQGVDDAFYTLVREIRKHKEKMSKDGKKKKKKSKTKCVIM
assayInfo: KRAS G12V degradation in SW620 cells (Western blot, DC50)
Format: cell-based
conditionNotes: 24 hours

compound: CCc1c(F)ccc2cc(O)cc(-c3ncc4c(N5CCOCC(C)(O)C5)nc(OCC5(CN6CCC7(CC6)CC(CN6CCN(c8ccc9c(c8)CN([C@H]8CCC(=O)NC8=O)C9=O)CC6)C7)CC5)nc4c3F)c12 (mixture of isomers)
DC50: 1 to 10 nM
--
compound: CCc1c(F)ccc2cc(O)cc(-c3ncc4c(N5CCC[C@@](C)(O)C5)nc(OCC5(CN6CC(N7CC(CN8CCN(c9ccc%10c(c9)CN([C@@H]9CCC(=O)NC9=O)C%10=O)CC8)C7)C6)CC5)nc4c3F)c12
DC50: 1 to 10 nM
--
compound: CCc1cccc2cc(O)cc(-c3ncc4c(N5CCC[C@@](C)(O)C5)nc(OCC5(CN6CC(CN7CC8(CCN(c9ccc%10c(c9)CN(C9CCC(=O)NC9=O)C%10=O)CC8)C7)C6)CC5)nc4c3F)c12 (stereo partly drawn)
DC50: > 100 nM
--
compound: CCc1c(F)ccc2cc(O)cc(-c3ncc4c(N5CCC=CCC5)nc(OCC5(CN6CCC7(CC6)CC(CN6CCN(c8ccc9c(c8)CN([C@H]8CCC(=O)NC8=O)C9=O)CC6)C7)CC5)nc4c3F)c12
DC50: > 100 nM
--
compound: CCc1c(F)ccc2cc(O)cc(-c3ncc4c(N5CCC[C@@](C)(O)C5)nc(OCC5(CN6CC(N7CCN(c8ccc9c(c8)CN([C@H]8CCC(=O)NC8=O)C9=O)CC7)C6)CC5)nc4c3F)c12
DC50: 1 to 10 nM
--
compound: CCc1c(F)ccc2cc(O)cc(-c3ncc4c(N5CCC[C@@](C)(O)C5)nc(OCC5(CN6CC(N7CC8(CCN(c9ccc%10c(c9)CN(C9CCC(=O)NC9=O)C%10=O)CC8)C7)C6)CC5)nc4c3F)c12 (stereo partly drawn)
DC50: < 1 nM
--
compound: CCc1c(F)ccc2cc(O)cc(-c3ncc4c(N5CCC[C@@](C)(O)C5)nc(OCC5(CN6CCC7(CC6)CN(C6CN(c8ccc9c(c8)CN(C8CCC(=O)NC8=O)C9=O)C6)C7)CC5)nc4c3F)c12 (stereo partly drawn)
DC50: < 1 nM
--
compound: CCc1cccc2cc(O)cc(-c3ncc4c(N5CCC[C@@](C)(O)C5)nc(OCC5(CN6CCC7(CC6)CCN(c6ccc8c(c6)CN(C6CCC(=O)NC6=O)C8=O)CC7)CC5)nc4c3F)c12 (stereo partly drawn)
DC50: < 1 nM
--
compound: CCc1c(F)ccc2cc(O)cc(-c3ncc4c(N5CCC[C@@](C)(O)C5)nc(OCC5(CN6CCC7(CCC(N8CCN(c9ccc%10c(c9)CN([C@H]9CCC(=O)NC9=O)C%10=O)CC8)CC7)CC6)CC5)nc4c3F)c12
DC50: 1 to 10 nM

----------
studyTarget: KRAS-G12V/RAF1 (Homo sapiens (Human), UniProt P01116, G12V)
assayInfo: KRAS/RAF1 binding inhibition assay (AlphaScreen)
Examples of compounds with documented IC50 follow.
measurementName: IC50

compound: CCc1c(F)ccc2cc(O)cc(-c3ncc4c(N5CCC[C@@](C)(O)C5)nc(OCC5(CN6CCC(O)(CN7CCN(c8ccc9c(c8)CN([C@H]8CCC(=O)NC8=O)C9=O)CC7)CC6)CC5)nc4c3F)c12 [Compound 13]
result: < 20 nM
--
compound: CCc1c(F)ccc2cc(O)cc(-c3ncc4c(N5CCC[C@@](C)(O)C5)nc(OCC5(CN6CC7(CCN(C8CN(c9ccc%10c(c9)CN(C9CCC(=O)NC9=O)C%10=O)C8)CC7)C6)CC5)nc4c3F)c12 (stereo partly drawn) [Compound 172]
result: < 20 nM
--
compound: CCc1c(F)ccc2cc(O)cc(-c3ncc4c(N5CCC[C@@](C)(O)C5)nc(OCC5(CN6CCN(C7CC8(CCN(c9ccc%10c(c9)CN(C9CCC(=O)NC9=O)C%10=O)CC8)C7)CC6)CC5)nc4c3F)c12 (stereo partly drawn) [Compound 162]
result: 20 to 200 nM
--
compound: C[C@@]1(O)CCCN(c2nc(OCC3(CN4CCC(CN5CCN(c6ccc7c(c6)CN([C@H]6CCC(=O)NC6=O)C7=O)CC5)CC4)CC3)nc3c(F)c(-c4cc(O)cc5ccc(F)c(F)c45)ncc23)C1 [Compound 111]
result: 20 to 200 nM
--
compound: CCc1cccc2cc(O)cc(-c3ncc4c(N5CCC[C@@](C)(O)C5)nc(OCC5(CN6CCC(CN7CC8(CCN(c9ccc%10c(c9)CN(C9CCC(=O)NC9=O)C%10=O)CC8)C7)CC6)CC5)nc4c3F)c12 (stereo partly drawn) [Compound 19]
result: 20 to 200 nM
--
compound: CCc1cccc2cc(O)cc(-c3ncc4c(N5CCC[C@@](C)(O)C5)nc(OCC5(CN6CCC7(CC6)CC(F)(CN6CCN(c8ccc9c(c8)CN([C@H]8CCC(=O)NC8=O)C9=O)CC6)C7)CC5)nc4c3F)c12 [Compound 173]
result: 20 to 200 nM
--
compound: CCc1cccc2cc(O)cc(-c3ncc4c(N5CCC[C@@](C)(O)C5)nc(OCC5(CN6CC(N7CC(N8CCN(c9ccc%10c(c9)CN([C@H]9CCC(=O)NC9=O)C%10=O)CC8)C7)C6)CC5)nc4c3F)c12 [Compound 168]
result: 20 to 200 nM
--
compound: Cc1nc(N)cc(-c2ncc3c(N4CCC[C@@](C)(O)C4)nc(OCC4(CN5CCC6(CC5)CC(CN5CCN(c7ccc8c(c7)CN([C@H]7CCC(=O)NC7=O)C8=O)CC5)C6)CC4)nc3c2F)c1C(F)(F)F [Compound 26]
result: > 200 nM
--
compound: CCc1c(F)ccc2cc(O)cc(-c3ncc4c(N5CCC[C@@](C)(O)C5)nc(OCC5(CN6CCC(C)(CN7CCC(N8CCN(c9ccc%10c(c9)CN([C@H]9CCC(=O)NC9=O)C%10=O)CC8)CC7)CC6)CC5)nc4c3F)c12 [Compound 213]
result: < 20 nM
--
compound: CCc1c(F)ccc2cc(O)cc(-c3ncc4c(N5CCC(O)CC5)nc(OCC5(CN6CCC(CN7CCN(c8ccc9c(c8)CN([C@H]8CCC(=O)NC8=O)C9=O)CC7)CC6)CC5)nc4c3F)c12 [Compound 115]
result: > 200 nM
--
compound: CCc1c(F)ccc2cc(O)cc(-c3ncc4c(N5CCCn6nc(C(=O)N(C)C)c(Cl)c6C5)nc(OCC5(CN6CCC(CN7CCN(c8ccc9c(c8)CN([C@H]8CCC(=O)NC8=O)C9=O)CC7)CC6)CC5)nc4c3F)c12 [Compound 108]
result: > 200 nM
--
compound: C[C@@]1(O)CCCN(c2nc(OCC3(CN4CCC5(CC4)CC(CN4CCN(c6ccc7c(c6)CN([C@H]6CCC(=O)NC6=O)C7=O)CC4)C5)CC3)nc3c(F)c(-c4cc(N)cc(Cl)c4C(F)(F)F)ncc23)C1 [Compound 135]
result: 20 to 200 nM
--
compound: CCc1c(F)ccc2cc(O)cc(-c3ncc4c(N5CCC[C@@](C)(O)C5)nc(OCC5(CN6CC(N7CC(N8CCN(c9ccc%10c(c9)CN([C@H]9CCC(=O)NC9=O)C%10=O)CC8)C7)C6)CC5)nc4c3F)c12 [Compound 137]
result: 20 to 200 nM
--
compound: CCc1c(F)ccc2cc(O)cc(-c3ncc4c(N5CCC[C@@](C)(O)C5)nc(OCC5(CN6CCC7(CC6)CC(CN6CCN(c8cc(F)c(C9CCC(=O)NC9=O)c(F)c8)CC6)C7)CC5)nc4c3F)c12 (stereo partly drawn) [Compound 49]
result: 20 to 200 nM
--
compound: CCc1c(F)ccc2cc(O)cc(-c3ncc4c(N5CCC[C@@](C)(O)C5)nc(OCC5(CN6CCC7(CC6)CN(C6CN(c8ccc9c(c8)CN(C8CCC(=O)NC8=O)C9=O)C6)C7)CC5)nc4c3F)c12 (stereo partly drawn) [Compound 163]
result: < 20 nM
--
compound: CCc1c(F)ccc2cc(O)cc(-c3ncc4c(N5CCCC6(CC(O)C6)C5)nc(OCC5(CN6CCC7(CC6)CC(CN6CCN(c8ccc9c(c8)CN([C@H]8CCC(=O)NC8=O)C9=O)CC6)C7)CC5)nc4c3F)c12 [Compound 97]
result: > 200 nM
--
compound: CCc1c(F)ccc2cc(O)cc(-c3ncc4c(N5CCC[C@@](C)(O)C5)nc(OCC5(CN6CCC(OC7CCC8(CC7)CN(c7ccc9c(c7)CN(C7CCC(=O)NC7=O)C9=O)C8)CC6)CC5)nc4c3F)c12 (stereo partly drawn) [Compound 184]
result: > 200 nM
--
compound: CCc1c(F)ccc2cc(O)cc(-c3ncc4c(N5CCC[C@@](C)(O)C5)nc(OCC5(CN6CC(N7CC8(CCN(c9ccc%10c(c9)CN(C9CCC(=O)NC9=O)C%10=O)CC8)C7)C6)CC5)nc4c3F)c12 (stereo partly drawn) [Compound 144]
result: < 20 nM
